tested on: MCF7; test: Antiproliferative activity against human MCF7 cells incubated for 72 hrs by SRB assay; type: functional, cell-based; conditions: MCF7, 72 h
attribute_measured: IC50 (µM)
Reply numerically in µM, unit not repeated.

[[record]]
item_smiles = "C=CC(=C)CC[C@]1(C)[C@H](C)C[C@H](OC(=O)/C=C\\C=C/CCCCC)[C@@]23C(=C[C@H](O)C[C@@H]12)[C@@H](OC(C)=O)O[C@H]3OC(C)=O"
experimental_value = 4.8

[[record]]
item_smiles = "C=CC(=C)CC[C@]1(C)[C@H](C)C[C@H](OC(=O)CCCCCCC)[C@@]23C(=C[C@H](O)C[C@@H]12)[C@@H](OC(C)=O)O[C@H]3OC(C)=O"
experimental_value = 4.9


Let's switch to this molecule now.
I am curious: what IC50 value has been reported for C=CC(=C)CC[C@]1(C)[C@H](C)C[C@H](OC(=O)/C=C\C=C/CCCCC)[C@@]23C(=C[C@@H](O)C[C@@H]12)[C@@H](OC(C)=O)O[C@H]3OC(C)=O ?
5.2

* * *

Listing: pIC50 of selected compounds
system: MCF7; experiment: Antiproliferative activity against human MCF7 cells incubated for 72 hrs by SRB assay; type: functional, cell-based; details: MCF7, 72 h
Recall that pIC50 is obtained by taking minus log10 of the concentration measured in molar.

Example entries begin here.
[[record]]
item_smiles = "C=CC(=C)CC[C@]1(C)[C@H](C)C[C@H](OC(=O)CCCCCCCCC)[C@@]23C(=CC(=O)C[C@@H]12)[C@@H](OC(C)=O)O[C@H]3OC(C)=O"
experimental_value = 5.08

[[record]]
item_smiles = "C=CC(=C)CC[C@]1(C)[C@H](C)C[C@H](OC(=O)CCCCCCCCC)[C@@]23C(=C[C@H](O)C[C@@H]12)[C@@H](OC(C)=O)O[C@H]3OC(C)=O"
experimental_value = 5.30


Requested read-out: pIC50. Entry: C=CC(=C)CC[C@]1(C)[C@H](C)C[C@H](OC(=O)CCCCCCCCC)[C@@]23C(=C[C@@H](O)C[C@@H]12)[C@@H](OC(C)=O)O[C@H]3OC(C)=O
5.27

* * *

system: A549; experiment: Antiproliferative activity against human A549 cells incubated for 72 hrs by SRB assay; format: functional, cell-based; settings: A549, 72 h
attribute_measured: pIC50
pIC50 here is simply -log10 of the concentration when that concentration is written in mol/L.

[[record]]
item_smiles = "C=CC(=C)CC[C@]1(C)[C@H](C)C[C@H](OC(=O)CCCCCCC)[C@@]23C(=C[C@H](O)C[C@@H]12)[C@@H](OC(C)=O)O[C@H]3OC(C)=O"
experimental_value = 5.33

[[record]]
item_smiles = "C=CC(=C)CC[C@]1(C)[C@H](C)C[C@H](OC(=O)CCCCCCCCC)[C@@]23C(=C[C@@H](O)C[C@@H]12)[C@@H](OC(C)=O)O[C@H]3OC(C)=O"
experimental_value = 5.28


What value of measured pIC50 is listed for C=CC(=C)CC[C@]1(C)[C@H](C)C[C@H](OC(=O)/C=C\C=C/CCCCC)[C@@]23C(=C[C@H](O)C[C@@H]12)[C@@H](OC(C)=O)O[C@H]3OC(C)=O ?
5.34

Name the reported pIC50 value associated with the compound C=CC(=C)CC[C@]1(C)[C@H](C)C[C@H](OC(=O)/C=C\C=C/CCCCC)[C@@]23C(=C[C@@H](O)C[C@@H]12)[C@@H](OC(C)=O)O[C@H]3OC(C)=O
5.32

Request the reported pIC50 associated with C=CC(=C)CC[C@]1(C)[C@H](C)C[C@H](OC(=O)CCCCCCCCC)[C@@]23C(=C[C@H](O)C[C@@H]12)[C@@H](OC(C)=O)O[C@H]3OC(C)=O
5.33
